Every entry's value here was drawn from PubChem BioAssay.

Experiment Notes: viability profiling in MM1S myeloma cells – cell-based, resazurin fluorescence, basal, 24 h, PK04 Diversity Set, profiling panel (AID 1174);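 further: MM1S multiple myeloma cell line; test concentration not given here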
Protocol Conditions: called active from +8 up or from −8 down
Active and inactive are the calls of the source.
Outcomes: True (active), False (inactive)

- Molecule: "COCC(=C=CC[C@H](O)c1ccc(CO)o1)CCO"
  Group: "False"
- Molecule: "CCOC(=O)C[C@H]1[C@H](OC(=O)c2ccccc2-c2ccccc2)[C@@H](NC(=O)c2ccc3ccccc3n2)c2cc(OCCCO)ccc2N1C(=O)Cc1ccc(OC)cc1"
  Group: "False"
- Molecule: "O=C1O[C@H](c2ccccc2)[C@H](c2ccccc2)N2[C@H]1[C@@H](C(=O)O)[C@]1(C(=O)Nc3ccc(C#CCCO)cc31)[C@H]2c1ccccc1OCCO"
  Group: "False"
- Molecule: "[N-]=[N+]=Nc1ccccc1C[C@@]1(C(=O)N2CCOCC2)N=C(c2ccc(OCCCO)cc2)O[C@@H]1c1ccccc1"
  Group: "False"
- Molecule: "O=C(NCCN1CCOCC1)[C@@H]1c2ccccc2C(=O)N(C2Cc3ccccc3C2)[C@H]1c1ccc(CO)cc1"
  Group: "False"
- Molecule: "COc1ccc(CCNC(=O)[C@@]2(Cc3ccccc3I)c3ccccc3C(=O)N(C3CCCCC3)[C@H]2c2ccc(CO)cc2)cc1"
  Group: "False"
- Molecule: "COc1ccc([Si](C)(C)[C@@H]2[C@@H](CCO)O[C@]3(C(=O)N(Cc4cccc(NC(=O)[C@H](C)O)c4)c4ccccc43)[C@H]2C)cc1"
  Group: "True"
- Molecule: "COc1cc2c(cc1O)C(C1CC1)N(C)CC2 (stereo not drawn)"
  Group: "False"

* * *

Tested on: Noggin (protein binding on small-molecule microarray)
Experiment Notes: small molecules binding Noggin protein – biochemical, 635/667 nm fluorescence, primary screen (AID 1095);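 further: score merges 667 nm feature fluorescence with signal to noise over triplicate slides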
Protocol Conditions: 635 nm fluorescence, higher = more signal
Measurement Label: composite z-score

- Compound: "CCCCC(=C=CC[C@H](O)c1ccc(OCCO)cc1)CCO"
  Measured On: "Noggin (protein binding on small-molecule microarray)"
  Measurement Label: "composite z-score"
  Measured Result: -0.124
- Compound: "CCOC(=O)C1=C[C@@H](c2ccccc2)N(S(=O)(=O)c2ccc(C)cc2)[C@H]1c1ccc(OC)cc1"
  Measured On: "Noggin (protein binding on small-molecule microarray)"
  Measurement Label: "composite z-score"
  Measured Result: 0.221
- Compound: "NCCCCCNC(=O)[C@@H]1C[C@@H]2C(=O)N[C@@H](CCCCN)C(=O)N2[C@@H]1c1ccc(O)cc1"
  Measured On: "Noggin (protein binding on small-molecule microarray)"
  Measurement Label: "composite z-score"
  Measured Result: 1.67
- Compound: "COCCOC(=O)N1C(=O)[C@@]2(c3cc(C#CCCO)ccc31)[C@H](C(=O)Nc1nc3ccccc3s1)[C@H]1C(=O)O[C@H](c3ccccc3)[C@H](c3ccccc3)N1[C@@H]2c1ccc(O)cc1"
  Measured On: "Noggin (protein binding on small-molecule microarray)"
  Measurement Label: "composite z-score"
  Measured Result: 0.797
- Compound: "Cn1cccc1C(O)C1C=CC2C(=O)N(c3ccccc3)C(=O)C2N1Nc1ccccc1 (stereo not drawn)"
  Measured On: "Noggin (protein binding on small-molecule microarray)"
  Measurement Label: "composite z-score"
  Measured Result: 0.781
- Compound: "C=CCNC(=O)[C@@H]1[C@H]2C(=O)O[C@H](c3ccccc3)[C@H](c3ccccc3)N2[C@H](c2ccccc2OCCO)[C@@]12C(=O)Nc1ccc(C#CCCO)cc12"
  Measured On: "Noggin (protein binding on small-molecule microarray)"
  Measurement Label: "composite z-score"
  Measured Result: 1.23
- Compound: "CC(C)c1ccc(NN2C(C(O)c3ccc(F)cc3)C=CC3C(=O)N(c4ccccc4)C(=O)C32)cc1 (stereo not drawn)"
  Measured On: "Noggin (protein binding on small-molecule microarray)"
  Measurement Label: "composite z-score"
  Measured Result: -0.101
- Compound: "CCCC=C(CCC)[C@@H](NC(=O)C(C)(C)C)c1ccc(C(=O)OC)cc1"
  Measured On: "Noggin (protein binding on small-molecule microarray)"
  Measurement Label: "composite z-score"
  Measured Result: -0.383

* * *

In this section we review reported z-score values for a set of compounds.
Experiment Notes: JC-1 mitochondrial potential readout, lung cancer cells – cell-based, A549, JC-1 fluorescence, basal, 24 h, 100 nL, profiling panel (AID 1138);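 further: A549 lung adenocarcinoma cells under basal conditions with no added stimulus; test concentration not given here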
Protocol Conditions: higher = more signal
Measurement Label: z-score

- Compound: "C=CCN1C(=O)[C@]2(CCC(=O)OC(C)(C)C)N=C(c3ccc(OCCCO)cc3)O[C@@H]2c2ccccc21"
  Measurement Label: "z-score"
  Measured Result: 0.859
- Compound: "CN1C(=O)C2C=CC(C(O)c3cccn3C)N(Nc3ccc([N+](=O)[O-])cc3[N+](=O)[O-])C2C1=O (stereo not drawn)"
  Measurement Label: "z-score"
  Measured Result: 0.0408
- Compound: "COCCOC(=O)N1C(=O)[C@@]2(c3cc(C#CC4(O)CCCCCC4)ccc31)[C@H](c1ccc(O)cc1)N1[C@H](c3ccccc3)[C@H](c3ccccc3)OC(=O)[C@H]1[C@@H]2C(=O)N1CCN(c2ncccn2)CC1"
  Measurement Label: "z-score"
  Measured Result: -0.976
- Compound: "COCCOC(=O)N1C(=O)[C@@]2(c3ccccc31)[C@H](c1ccc(O)cc1)N1[C@H](c3ccccc3)[C@H](c3ccccc3)OC(=O)[C@H]1[C@@H]2C(=O)N1CCN(c2ncccn2)CC1"
  Measurement Label: "z-score"
  Measured Result: -0.727
- Compound: "CCCCC(CC)C(O)C1C=CC2C(=O)N(C)C(=O)C2N1Nc1ccccc1 (stereo not drawn)"
  Measurement Label: "z-score"
  Measured Result: 0.665
- Compound: "COC(=O)[C@@]1(Cc2ccc(OC)cc2)[C@H]2c3cc(C(=O)N4CCCC4)n(CCc4c[nH]c5ccc(O)cc45)c3C[C@H]2CN1C(=O)c1ccccc1"
  Measurement Label: "z-score"
  Measured Result: 0.623
- Compound: "CC(C)[Si]1(C(C)C)OCc2cc(C3CC3)nc(-c3ccc(Oc4ccccc4)cc3)c21"
  Measurement Label: "z-score"
  Measured Result: 0.546
- Compound: "CC(C)NC(=O)[C@@]1(C)c2ccccc2C(=O)N(Cc2ccc(OC(F)(F)F)cc2)[C@H]1c1ccc(CO)cc1"
  Measurement Label: "z-score"
  Measured Result: -0.19
- Compound: "O=C1NC(=O)C2C1C=CC(C(O)c1ccco1)N2Nc1ccc(Cl)cc1Cl (stereo not drawn)"
  Measurement Label: "z-score"
  Measured Result: -0.553
- Compound: "COc1ccc(C#Cc2ccc3c(c2)[C@]2(C(=O)N3)[C@H](c3ccc(OCCO)cc3)N3[C@H](c4ccccc4)[C@H](c4ccccc4)OC(=O)[C@H]3[C@@H]2C(=O)NC[C@H](O)c2ccccc2)cc1"
  Measurement Label: "z-score"
  Measured Result: -1.54
- Compound: "C#CCN(Cc1ccccc1Br)[C@H](/C=C/c1ccccc1)[C@@H](O)Cc1ccccc1"
  Measurement Label: "z-score"
  Measured Result: 0.921
- Compound: "O=C1OCCC/C=C\\[C@H]2OC34C=CCN(c5ccc6ccccc6c5)C(=O)[C@H]3N(CCO)C(=O)[C@@H]4C12 (stereo partly drawn)"
  Measurement Label: "z-score"
  Measured Result: -0.817
- Compound: "C=CCNC(=O)[C@@H]1[C@H]2C(=O)O[C@H](c3ccccc3)[C@H](c3ccccc3)N2[C@H](c2ccccc2OCCO)[C@@]12C(=O)Nc1ccc(C#CCCO)cc12"
  Measurement Label: "z-score"
  Measured Result: 0.861
- Compound: "C=C[C@@H](OC)[C@H](OC(=O)Nc1ccc(OC)cc1)c1ccc(O)c(F)c1"
  Measurement Label: "z-score"
  Measured Result: -0.116
- Compound: "CCCCC=C[C@@H](NC(=O)OCc1ccccc1Cl)c1ccccc1"
  Measurement Label: "z-score"
  Measured Result: -1.55
- Compound: "CCCC[C@@H](O)C1=C(COC)C[C@H]2C(=O)N(Cc3ccccc3)C(=O)[C@H]2[C@H]1CO"
  Measurement Label: "z-score"
  Measured Result: 0.699
- Compound: "CC(C)=C1C(=O)C(c2ccccc2)=C2CN3C(=O)N(CCc4ccccc4)C(=O)[C@]3(Cc3ccc(C(F)(F)F)cc3)[C@H]21"
  Measurement Label: "z-score"
  Measured Result: 1.57
- Compound: "CCCNC(=O)[C@@]1(Sc2ccc(C)cc2)CC(=O)N(C2Cc3ccccc3C2)[C@@H]1c1ccc(CO)cc1I"
  Measurement Label: "z-score"
  Measured Result: 1.87
- Compound: "CN1C2C=C(CCCO)C(C3C(=O)N(C(N)=O)C(=O)C32)C1C1CC1 (stereo not drawn)"
  Measurement Label: "z-score"
  Measured Result: 0.771
- Compound: "COCCOC(=O)N1C(=O)[C@@]2(c3cc(C#CC4=CCCCC4)ccc31)[C@H](c1ccccc1OCCO)N1[C@H](c3ccccc3)[C@H](c3ccccc3)OC(=O)[C@H]1[C@@H]2C(=O)NC[C@H](O)c1ccccc1"
  Measurement Label: "z-score"
  Measured Result: -0.701
- Compound: "C=CC[C@]1(C(=O)N2CCOCC2)COC(c2ccc(OCCCO)cc2)=N1"
  Measurement Label: "z-score"
  Measured Result: -0.772
- Compound: "NC(=O)NCC#Cc1ccc2c(c1)[C@]1(C(=O)N2)[C@H](c2ccccc2OCCO)N2[C@H](c3ccccc3)[C@H](c3ccccc3)OC(=O)[C@H]2[C@@H]1C(=O)NC[C@H](O)c1ccccc1"
  Measurement Label: "z-score"
  Measured Result: -0.203
- Compound: "C=C[C@H](C)[C@H](OC(=O)Nc1ccc(SC)cc1)c1ccc(OCCO)cc1"
  Measurement Label: "z-score"
  Measured Result: -1.38
- Compound: "CC1=C2[C@@H](CCc3ccccc3)OB(O)C[C@@H]2[C@@H]2C(=O)N(C)C(=O)[C@@H]2C1"
  Measurement Label: "z-score"
  Measured Result: -0.0475
- Compound: "COc1cc2c(cc1O)C=[N+](Cc1sc3ccccc3c1Cl)CC2"
  Measurement Label: "z-score"
  Measured Result: -0.571
- Compound: "NCCCCCCNC(=O)[C@@H]1C[C@@H]2C(=O)N[C@@H](CCCCN)C(=O)N2[C@@H]1c1ccc(O)cc1"
  Measurement Label: "z-score"
  Measured Result: -0.903
- Compound: "CO[C@H]1O[C@H](CO)[C@@H](OC(=O)Nc2ccc(Br)cc2)[C@@H]2OC(=O)[C@@H](Cc3ccccc3)C/C=C/C[C@H](Cc3ccccc3)C(=O)O[C@@H]12"
  Measurement Label: "z-score"
  Measured Result: 2.5
- Compound: "C=CC[C@@]1(C(=O)NCCCOC)N=C(c2ccc(OCCCO)cc2)O[C@@H]1c1ccccc1N=[N+]=[N-]"
  Measurement Label: "z-score"
  Measured Result: 1.3
